Value source: patent US20220402985A1

targetOrSystem: ErbB3 on rat Schwann cells (rat) (UniProt Q62799)
Sequence (Q62799 20-1339): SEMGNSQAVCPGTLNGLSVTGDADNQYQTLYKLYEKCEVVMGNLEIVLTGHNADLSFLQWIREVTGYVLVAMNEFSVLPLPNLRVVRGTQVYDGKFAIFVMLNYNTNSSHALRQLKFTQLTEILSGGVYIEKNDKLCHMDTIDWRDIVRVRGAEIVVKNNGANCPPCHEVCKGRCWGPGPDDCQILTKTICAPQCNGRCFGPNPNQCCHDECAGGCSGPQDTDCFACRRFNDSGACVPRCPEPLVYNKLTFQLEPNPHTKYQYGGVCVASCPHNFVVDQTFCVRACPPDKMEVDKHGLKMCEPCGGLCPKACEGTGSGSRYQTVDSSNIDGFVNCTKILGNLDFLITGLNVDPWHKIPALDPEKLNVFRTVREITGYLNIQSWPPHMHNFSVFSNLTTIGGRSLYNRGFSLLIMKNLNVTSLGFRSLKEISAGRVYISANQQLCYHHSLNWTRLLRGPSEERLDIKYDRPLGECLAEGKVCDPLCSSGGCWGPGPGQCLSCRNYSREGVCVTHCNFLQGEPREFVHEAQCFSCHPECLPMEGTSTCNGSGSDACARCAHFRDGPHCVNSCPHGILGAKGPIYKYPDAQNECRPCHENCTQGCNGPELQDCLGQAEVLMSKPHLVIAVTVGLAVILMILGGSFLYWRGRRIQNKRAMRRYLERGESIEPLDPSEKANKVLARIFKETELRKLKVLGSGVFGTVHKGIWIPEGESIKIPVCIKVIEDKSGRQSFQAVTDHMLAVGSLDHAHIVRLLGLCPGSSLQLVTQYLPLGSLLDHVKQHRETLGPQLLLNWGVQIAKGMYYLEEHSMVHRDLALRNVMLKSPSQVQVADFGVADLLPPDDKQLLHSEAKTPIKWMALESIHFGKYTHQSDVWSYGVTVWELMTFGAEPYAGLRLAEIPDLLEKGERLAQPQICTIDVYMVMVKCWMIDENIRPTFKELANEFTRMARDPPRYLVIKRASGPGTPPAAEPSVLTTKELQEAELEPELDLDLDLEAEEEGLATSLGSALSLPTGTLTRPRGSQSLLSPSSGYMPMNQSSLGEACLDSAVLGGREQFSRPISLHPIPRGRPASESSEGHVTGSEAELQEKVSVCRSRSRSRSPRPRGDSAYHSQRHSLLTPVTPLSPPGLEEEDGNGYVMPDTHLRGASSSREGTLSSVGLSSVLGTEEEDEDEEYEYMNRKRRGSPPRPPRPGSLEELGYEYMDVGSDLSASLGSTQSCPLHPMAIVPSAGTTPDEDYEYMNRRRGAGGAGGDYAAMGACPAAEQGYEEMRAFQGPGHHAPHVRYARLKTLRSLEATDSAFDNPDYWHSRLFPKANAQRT
methodNotes: cell-based or functional assay
measuredProperty: Schwann cells (SC) (ErbB3) Avg EC50 (nM)
Answer in nM, number only, no unit symbol.

-- ask Quote Schwann cells (SC) (ErbB3) Avg EC50 reported for huNRG1(S177-Q237)(3A7)::GG::huFcSEFL2 (Pb) (Fc fusion) SHLVKCAEKEKSFCVNGGECFVIEGSSIPSRFLCKCPNEFTGDRCQKVVMASFYKAEELYQGGDKTHTCPPCPAPELLGGPSVFLFPPKPKDTLMISRTPEVTCVVVDVSHEDPEVKFNWYVDGVEVHNAKTKPCEEQYGSTYRCVSVLTVLHQDWLNGKEYKCKVSNKALPAPIEKTISKAKGQPREPQVYTLPPSREEMTKNQVSLTCLVKGFYPSDIAVEWESNGQPENNYKTTPPVLDSDGSFFLYSKLTVDKSRWQQGNVFSCSVMHEALHNHYTQKSLSLSPGK please.
-- reply 46.5

---
-- ask Quote Schwann cells (SC) (ErbB3) Avg EC50 reported for huNRG1(S177-Q237)(NRGE1P)::GG::huFcSEFL2 (Pb) (Fc fusion) SHLVKCAESHKSFCVNGGECFMIEGPSNPSRYLCKCPNEFTGDRCQDFFMASFYKAEELYQGGDKTHTCPPCPAPELLGGPSVFLFPPKPKDTLMISRTPEVTCVVVDVSHEDPEVKFNWYVDGVEVHNAKTKPCEEQYGSTYRCVSVLTVLHQDWLNGKEYKCKVSNKALPAPIEKTISKAKGQPREPQVYTLPPSREEMTKNQVSLTCLVKGFYPSDIAVEWESNGQPENNYKTTPPVLDSDGSFFLYSKLTVDKSRWQQGNVFSCSVMHEALHNHYTQKSLSLSPGK please.
-- reply 510

-- ask Quote Schwann cells (SC) (ErbB3) Avg EC50 reported for huNRG1(S177-Q237)(2H7)::GG::huFcSEFL2 (Pb) (Fc fusion) SHLVKCGEKEKSFCVNGGECYVVEDLSIPSRFLCKCPNEFTGDRCQKVVMASFYKAEELYQGGDKTHTCPPCPAPELLGGPSVFLFPPKPKDTLMISRTPEVTCVVVDVSHEDPEVKFNWYVDGVEVHNAKTKPCEEQYGSTYRCVSVLTVLHQDWLNGKEYKCKVSNKALPAPIEKTISKAKGQPREPQVYTLPPSREEMTKNQVSLTCLVKGFYPSDIAVEWESNGQPENNYKTTPPVLDSDGSFFLYSKLTVDKSRWQQGNVFSCSVMHEALHNHYTQKSLSLSPGK please.
-- reply 110
